- Subject of test: His-RCL (deoxynucleoside 5′-monophosphate N-glycosidase) (Rattus norvegicus)
- Construct: made in house; host or cells: E. coli Bli5 (BL21 (DE3) pDIA17), plasmid pET28aRcl
- Sequence (O35820 whole entry): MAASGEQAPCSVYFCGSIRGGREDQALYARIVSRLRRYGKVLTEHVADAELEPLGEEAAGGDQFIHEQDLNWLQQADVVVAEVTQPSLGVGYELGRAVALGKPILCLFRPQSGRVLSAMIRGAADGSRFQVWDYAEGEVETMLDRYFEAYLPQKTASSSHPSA
- Assay text: Kinetic parameters of His-RCL (wild-type) with dNMP substrates, initial velocity measurements
- Assay type: biochemical
- Assay conditions: Table 3; additional substrates of His-RCL; read-out: Km
Experimental readout: Km (µM)

Consider the reported Km for these molecules:
> print(dat)
                                   molecule  reported.measurement
1  COc1nc(N)nc2c1ncn2[C@H]1C[C@H](O)[C@@H](COP(=O)(O)O)O1 [06-methyl-dGMP]                    61
2  Nc1nc2c(ncn2[C@H]2C[C@H](O)[C@@H](COP(=O)(O)O)O2)c(=O)[nH]1 [dGMP]                    77

I. CCNc1nc2c(ncn2[C@H]2C[C@H](O)[C@@H](COP(=O)(O)O)O2)c(=O)[nH]1 [N2-ethyl-dGMP]
II. C[n+]1cn([C@H]2C[C@H](O)[C@@H](COP(=O)(O)O)O2)c2nc(N)[nH]c(=O)c21 [N7-methyl-dGMP]
Which one would you say has the larger Km value: I , or II ? I would appreciate it if you answered with the label of your choice.
II
(II: 470 µM, I: 71 µM)
